assay: in vitro; details: human, liver microsomes
In this section, each of the molecules is paired with its reported microsomal CLint.
metric: microsomal CLint (µL/min/mg)

{"molecule": "CC(C)(C)NC(=O)c1ccc(Oc2cc(F)c(CC(=O)O)cc2Cl)c(NS(=O)(=O)c2ccc(C3CC3)cc2Cl)c1", "units.label": "µL/min/mg", "comparator": "<", "recorded.result": 3}
{"molecule": "CC(C)N(CCCNC(=O)Nc1ccc(C(C)(C)C)cc1)C[C@H]1O[C@@H](n2ccc3c(N)ncnc32)[C@H](O)[C@@H]1O", "units.label": "µL/min/mg", "comparator": ">", "recorded.result": 150}
{"molecule": "Cc1cc(C)nc(SCC(N)=O)n1", "units.label": "µL/min/mg", "comparator": "<", "recorded.result": 3}
{"molecule": "O=C(O)COc1ccc(Br)cc1-c1ccccc1", "units.label": "µL/min/mg", "comparator": "<", "recorded.result": 3}
{"molecule": "Cc1c2c(=O)n(-c3ccccc3Cl)[nH]c2cc(=O)n1Cc1ccccn1", "units.label": "µL/min/mg", "comparator": "<", "recorded.result": 3}
{"molecule": "COc1ccc(CC(=O)NC(NC(=NC#N)Nc2ccccc2C)C(C)(C)C)cc1OC (stereo not given)", "units.label": "µL/min/mg", "comparator": ">", "recorded.result": 150}
{"molecule": "O=C(O)[C@H](Cc1ccc(Cl)cc1)N1CCC(CN2CCC(Oc3ccc(Cl)c(Cl)c3)CC2)CC1", "units.label": "µL/min/mg", "comparator": "<", "recorded.result": 3}
{"molecule": "CC1CN(C(=O)c2cc3ccccc3[nH]2)CCN1 (stereo not given)", "units.label": "µL/min/mg", "comparator": "=", "recorded.result": 8}
{"molecule": "COc1ccc(CC(C)(C)NC[C@H](O)c2cc(O)cc3c2OCC(=O)N3)cc1", "units.label": "µL/min/mg", "comparator": "=", "recorded.result": 14}
{"molecule": "O=c1[nH]c2c(O)ccc([C@@H](O)CNCCCSCCNCCc3cccc(Cl)c3Cl)c2s1", "units.label": "µL/min/mg", "comparator": "=", "recorded.result": 35}
{"molecule": "CN(C)CC(O)COc1ccc(Nc2ncc(Cl)c(Nc3ccccc3)n2)cc1 (stereo not given)", "units.label": "µL/min/mg", "comparator": "=", "recorded.result": 5}
{"molecule": "CCS(=O)(=O)CCCC12CCC(c3nnc(-c4ccccc4C(F)(F)F)n3C)(CC1)CC2", "units.label": "µL/min/mg", "comparator": "<", "recorded.result": 3}
{"molecule": "CC(C(=O)O)c1ccc(-c2ccccc2)c(F)c1 (stereo not given)", "units.label": "µL/min/mg", "comparator": "=", "recorded.result": 23.5}
{"molecule": "COc1cc(-n2cnc3cc(-c4ccc(Cl)cc4)sc3c2=O)ccc1OC[C@H](OP(=O)(O)O)C1CC1", "units.label": "µL/min/mg", "comparator": "<", "recorded.result": 3}
{"molecule": "O=c1[nH]c2c(O)ccc([C@@H](O)CNCCc3cccc(CNCCCc4ccccc4)c3)c2s1", "units.label": "µL/min/mg", "comparator": "=", "recorded.result": 9}
{"molecule": "Cc1ccc2c(c1)c(Sc1ccc(S(C)(=O)=O)cc1)c(C)n2CC(=O)O", "units.label": "µL/min/mg", "comparator": "<", "recorded.result": 3}
{"molecule": "CN(CCNCCc1ccc(O)c2[nH]c(=O)sc12)C(=O)CCOCCc1ccccc1", "units.label": "µL/min/mg", "comparator": "=", "recorded.result": 35}
{"molecule": "CCOC(=O)C1=C(C)NC(C)=C(C(=O)OC)C1c1cccc([N+](=O)[O-])c1 (stereo not given)", "units.label": "µL/min/mg", "comparator": "=", "recorded.result": 85}
{"molecule": "O=C(Nc1cccc(CCO)c1)c1cc2cc(Cl)ccc2[nH]1", "units.label": "µL/min/mg", "comparator": "=", "recorded.result": 10}
{"molecule": "CCC(CC)NC(=O)c1c(C)nn(-c2ccccc2)c1NS(=O)(=O)c1ccc(C)cc1", "units.label": "µL/min/mg", "comparator": "=", "recorded.result": 23.6}

###

assay: in vitro; conditions: human, plasma, PPB
# if measured fraction unbound at 5 h < 0.02: yes (1)  # else: no (0)

{"entry.smiles": "CNCCCC12CCC(c3ccccc31)c1ccccc12", "class.name": "no (0)"}
{"entry.smiles": "COc1cc(OC)c(S(=O)(=O)N2c3ccccc3Oc3ccccc32)cc1NC(=O)/C=C/C(=O)O", "class.name": "no (0)"}
{"entry.smiles": "CC(C)Oc1cc2ncc(C(N)=O)c(Nc3ccc(Cl)c(Cl)c3)c2cc1N1CCN(C)CC1", "class.name": "yes (1)"}
{"entry.smiles": "CCC(CC)NC(=O)c1c(C)nn(C(C)C)c1NS(=O)(=O)c1ccc(C)cc1", "class.name": "no (0)"}
{"entry.smiles": "CN[C@H]1CC[C@@H](c2ccc(Cl)c(Cl)c2)c2ccccc21", "class.name": "yes (1)"}
{"entry.smiles": "COC(=O)CCn1cc(-c2cc(NC3CC3)n3ncc(C#N)c3n2)c2cc(NC(C)=O)ccc21", "class.name": "yes (1)"}
{"entry.smiles": "COc1cnc(-c2ccccn2)nc1N(C)c1ccccc1", "class.name": "no (0)"}
{"entry.smiles": "CC(C)COc1cccc(/C=C2\\SC(=O)NC2=O)c1N1CCC[C@@H](N)C1", "class.name": "yes (1)"}
{"entry.smiles": "Clc1cccc(-c2cnc3ccc(NC4CCOCC4)nn23)c1", "class.name": "yes (1)"}
{"entry.smiles": "Cc1ccc(C(=O)c2ccc(CC(=O)O)n2C)cc1", "class.name": "yes (1)"}
{"entry.smiles": "CC(C)NC(=O)c1nn(-c2ccc(Cl)cc2)c(=O)c2c(N)scc12", "class.name": "yes (1)"}
{"entry.smiles": "O=C(CN1C2=NCCN2c2ccccc21)c1ccc(Cl)cc1", "class.name": "no (0)"}
{"entry.smiles": "COCCNC(=O)c1ccc(Nc2ncc3cc(-c4cnccc4C)ccc3n2)cc1", "class.name": "no (0)"}

###

assay: in vitro; settings: human, hepatocytes
The following molecules are listed with their measured hepatocyte CLint values.

{"molecule": "CC[C@H](C)C(=O)O[C@H]1C[C@H](O)C=C2C=C[C@H](C)[C@H](CC[C@@H](O)C[C@@H](O)CC(=O)O)[C@H]21 [PRAVASTATIN]", "hepatocyte CLint": "< 3 µL/min/1e6 cells"}
{"molecule": "CS(=O)(=O)C1(c2cc(N3CCOCC3)nc(-c3cccc4[nH]ncc34)n2)CC1", "hepatocyte CLint": "< 3 µL/min/1e6 cells"}
{"molecule": "CCS(=O)(=O)CCCC12CCC(c3nnc(-c4ccccc4C(F)(F)F)n3C)(CC1)CC2 [MK-0736]", "hepatocyte CLint": "< 3 µL/min/1e6 cells"}

###

Listed next: entries and their corresponding logD.
test: physchem; details: octan-1-ol/water, pH 7.4, LogD7.4

{"entry.smiles": "Nc1c2c(nc3ccc(Br)cc13)N(c1ccccc1)CC2", "logD": 3.12}
{"entry.smiles": "CC(C)Cn1c(=O)n(C)c(=O)c2c(C(=O)N3C[C@H](O)CO3)c(Cc3ccccc3C(F)(F)F)sc21", "logD": 3.15}
{"entry.smiles": "Cc1cn([C@H]2CCCN(S(=O)(=O)c3ccc(C(=O)O)c(Oc4ccc(Cl)c(Cl)c4)c3)C2)c(=O)[nH]c1=O", "logD": -0.87}
{"entry.smiles": "CC1(C)CNC(=O)c2sc(N3CCOCC3)nc2C1", "logD": 1.29}

###

assay: physchem; conditions: octan-1-ol/water, pH 7.4, LogD7.4
Label label 1 when logD is at or above 3; otherwise label label 0.

{"molecule": "CCN(CCO)CCCOc1cc2ncnc(Nc3cc(CC(=O)Nc4cccc(F)c4F)[nH]n3)c2cc1OC", "class.name": "label 0"}
{"molecule": "Cc1nc(CSc2nc(N[C@H](C)CO)c3sc(N)nc3n2)cs1", "class.name": "label 0"}
{"molecule": "Fc1cccc(C(COCc2cc(C(F)(F)F)cc(C(F)(F)F)c2)N2CCNCC2)c1 (stereo not given)", "class.name": "label 1"}
{"molecule": "O=C(NCC12CC3CC(CC(C3)C1)C2)c1cc(CN2C[C@@H]3C[C@H]2CN3)ccc1Cl", "class.name": "label 0"}
{"molecule": "O=c1cc(-c2ccccc2)ccn1-c1ccc2c(cnn2CCN2CCCC2)c1", "class.name": "label 0"}
{"molecule": "C[C@@H]1CN(c2noc(C(F)F)n2)CCN1c1ncc(OCc2ccncc2C#N)cn1", "class.name": "label 0"}
{"molecule": "O=Cc1ccccc1B(O)O", "class.name": "label 0"}
{"molecule": "CC(C)(F)C[C@H](N[C@@H](c1ccc(-c2ccc(S(C)(=O)=O)cc2)cc1)C(F)(F)F)C(=O)NC1(C#N)CC1", "class.name": "label 0"}
{"molecule": "CCN1CCN(C(=O)c2cc3cc(Cl)ccc3[nH]2)CC1", "class.name": "label 1"}
{"molecule": "OC(CCN1CCCCC1)(c1ccccc1)C1CCCCC1 (stereo not given)", "class.name": "label 0"}
{"molecule": "CC(c1ccccc1)C(Cc1nc2ccccc2[nH]1)c1nc2ccccc2[nH]1 (stereo not given)", "class.name": "label 1"}
{"molecule": "CNS(=O)(=O)c1ccc2c(C(=O)NC[C@@H](O)CN3CCC(Oc4ccc(Cl)c(Cl)c4)CC3)c[nH]c(=O)c2c1", "class.name": "label 0"}
{"molecule": "CN1CCN(c2ccc3ncc(C(N)=O)c(Nc4ccc(F)cc4F)c3c2)CC1", "class.name": "label 0"}
{"molecule": "C=CCc1ccccc1OCC(O)CNC(C)C (stereo not given)", "class.name": "label 0"}
